Origin of measurements: ChEMBL document CHEMBL1125607

// reported Kd per item
- TARGET DESC: Gonadotropin-releasing hormone receptor (Rattus norvegicus, UniProt P30969)
- Sequence (P30969 whole entry): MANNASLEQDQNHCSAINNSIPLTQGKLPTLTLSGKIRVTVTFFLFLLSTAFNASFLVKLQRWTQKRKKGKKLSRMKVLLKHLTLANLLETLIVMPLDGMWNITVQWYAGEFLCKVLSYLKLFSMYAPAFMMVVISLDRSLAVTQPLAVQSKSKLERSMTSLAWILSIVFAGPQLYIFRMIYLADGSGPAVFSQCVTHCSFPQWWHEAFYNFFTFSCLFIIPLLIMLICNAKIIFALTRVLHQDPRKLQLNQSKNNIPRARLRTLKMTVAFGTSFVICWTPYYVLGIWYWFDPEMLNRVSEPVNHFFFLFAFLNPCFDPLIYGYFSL
- ASSAY TEXT: In vitro binding affinity of Gonadotropin-releasing hormone antagonist was measured in rat pituitary cell membranes
- Design: species or system Pituitary gland cell, Membrane
READOUT LABEL: Kd (nM)

- CC(C)C[C@H](NC(=O)[C@@H](CCCCNC(=NC#N)NC1CCCCC1)NC(=O)[C@H](CCCCNC(=NC#N)NC1CCCCC1)NC(=O)[C@H](CO)NC(=O)[C@H](Cc1c[nH]c2ccccc12)NC(=O)[C@H](Cc1cnc[nH]1)NC(=O)[C@@H]1CCC(=O)N1)C(=O)N[C@@H](CCCCNC(C)C)C(=O)N1CCC[C@H]1C(=O)N[C@H](C)C(N)=O: 1.2
- CC(C)C[C@H](NC(=O)[C@@H](CCCNC(=N)N)NC(=O)[C@H](Cc1ccc(O)cc1)NC(=O)[C@H](CO)NC(=O)[C@@H](CCCCNc1nnc(N)[nH]1)NC(=O)[C@H](Cc1cnc[nH]1)NC(=O)[C@@H]1CCC(=O)N1)C(=O)N[C@@H](CCCCNC(C)C)C(=O)N1CCC[C@H]1C(=O)N[C@H](C)C(N)=O: 0.27
